meta.source: the nanobody polyreactivity screen of Harvey et al. (2022)

procedure_text: yeast display, Sf9 membrane polyspecificity reagent, FACS + sequencing; frameworks hold sequencing errors

# sequence_string, polyreactivity (PSR sort gate)
measured = [
    ("QVQLVESGGGLVQAGGSLRLSCAASGRTFVSYAMGWYRQAPGKERELVATITGSTGGTYYADSVKGRFTISRDNAKNTVYLQMNSLKPEDTAVYYCNKDYYYNPGNVASGYDYWGQGTQVTVSS", "low polyreactivity"),
    ("QVQLVESGGGLLQAGGSLSLSCAASGSIFVTNAMGWYRQAPGKERELVAAISVSGGSTYYADSVKGRFTISRDNAKYTVYLQMNSLKPEDTAVYYCNTVRSPPGHDYWGQGTQVTLSS", "low polyreactivity"),
    ("KVHLVESGGGLVQAGGSLRLSCPAAGFTLDQYAMGWYRQAPGKEMELVAVITSGVNTYYADSVKGRFTISRDNAKNTVYLQMNSLKPEDTAVYYCAKDVCDPFYDPFEYWGQGTQVTVSS", "low polyreactivity"),
    ("QVQLVESGGVLVQAGGSLRLSCAASGITFIGYAMGWYRQAPGKERELVASITSGANTNYADSVKGRFTISRDNAKNTVYLQMNSVKAEDTAVYYCAAPEHGTYANILGEPLDYWGQGTQVTVSS", "low polyreactivity"),
]
